testTarget: α-Glucosidase (EC.3.2.1.20)
testProtocol: α-Glucosidase inhibition assay (p-nitrophenyl-α-D-glucopyranoside substrate, absorbance at 405 nm)
Format: biochemical
measurementSetup: in vitro; pH 6.8 phosphate buffer, 37 °C, 15 min; acarbose positive control; read-out: IC50 (mM ± SEM, mM), α-glucosidase inhibitory activity
Protocol: Open column chromatography (CC) was carried out using silica gel (200-300 mesh, Qingdao Marine Chemical Co., Qingdao, China) or octadecyl silica gel (ODS, 25-40 μm, Fuji) as stationary phases. […] The IR spectra were recorded as KBr pellets on a Jasco 302-A spectrometer. Optical rotation was recorded on a Jasco P-2000 polarimeter. HRESIMS were measured on a FTMS-7 instrument (Bruker Daltonics). Melting points were determined on a Gallenkemp apparatus and are uncorrected. […]
Rule: measured IC50 below 3 mM gets satisfied; anything equal to or greater than 3 mM gets not satisfied.

C[C@@H]1CC[C@]2(C(=O)O)CC[C@]3(C)C(=CCC4[C@@]5(C)C[C@@H](O)C(=O)C(C)(C)C5CC[C@]43C)C2[C@@]1(C)O (stereo partly shown) | satisfied
C[C@@H]1CC[C@]2(C(=O)O)CC[C@]3(C)C(=CCC4[C@@]5(C)CC[C@H](OC(=O)C=Cc6ccc(O)cc6)C(C)(C)C5CC[C@]43C)C2[C@@H]1C (stereo partly shown) | satisfied
CC1CCC2(C(=O)OC3OC(CO)C(O)C(O)C3O)CCC3(C)C(=CCC4C5(C)CCC(OC6OCC(O)C(O)C6O)C(C)(C)C5CCC43C)C2C1(C)O (stereo not shown) [Compound 13, ziyu-glycoside I] | not satisfied
C[C@@H]1CC[C@]2(C(=O)O)CC[C@]3(C)C(=CC[C@@H]4[C@@]5(C)CC[C@H](O)C(C)(C)[C@@H]5CC[C@]43C)[C@@H]2[C@]1(C)O | satisfied
CC1CCC2(C(=O)OC3OC(CO)C(O)C(O)C3O)CCC3(C)C(=CCC4C5(C)CC(O)C(=O)C(C)(C)C5CCC43C)C2C1(C)O (stereo not shown) | satisfied
CC1(C)CC[C@]2(C(=O)O[C@@H]3O[C@H](CO)[C@@H](O)[C@H](O)[C@H]3O)CC[C@]3(C)C(=CCC4[C@@]5(C)C[C@@H](O)[C@H](O)C(C)(C)C5CC[C@]43C)C2[C@H]1O (stereo partly shown) [Compound 10, 24-deoxysericoside] | not satisfied
C=C1C(C)CCC2(C(=O)OC3OC(CO)C(O)C(O)C3O)CCC3(C)C(=CCC4C5(C)CCC(OC6OCC(O)C(O)C6O)C(C)(C)C5CCC43C)C12 (stereo not shown) | satisfied
C[C@@H]1CC[C@]2(C(=O)O)CC[C@]3(C)C(=CCC4[C@@]5(C)CC(=O)[C@H](O)C(C)(C)C5CC[C@]43C)C2[C@@]1(C)O (stereo partly shown) | satisfied
C[C@@H]1CC[C@]2(C(=O)O[C@@H]3O[C@H](CO)[C@@H](O)[C@H](O)[C@H]3O)CC[C@]3(C)C(=CCC4[C@@]5(C)C[C@@H](O)[C@H](O)C(C)(C)C5CC[C@]43C)C2[C@@]1(C)O (stereo partly shown) | not satisfied

Attention now turns to another entry.
# strict comparison: is reported IC50 < 3 mM? input = C[C@@H]1CC[C@]2(C(=O)O)CC[C@]3(C)C(=CC[C@@H]4[C@@]5(C)C[C@@H](O)[C@@H](O)C(C)(C)[C@@H]5CC[C@]43C)[C@@H]2[C@]1(C)O
satisfied
